Please provide measured selectivity ratio for the entries that follow.
Assay: Selectivity index, ratio of IC50 for HEK293 cells to IC50 for drug-sensitive Plasmodium falciparum 3D7 ring stage forms
Assay type: toxicity
Conditions: human; read-out: Ratio IC50
API note: the answer field is a bare number with no unit suffix.

Q. Dear colleague, I am looking for the recorded selectivity ratio of the following molecule: COc1ccc2nc3cc(Cl)ccc3c(Nc3cc(CN4CCCC4)c(O)c(CN4CCCC4)c3)c2n1 [PYRONARIDINE]
A. 246

Q. Look at this molecule and give its reported selectivity ratio. COc1ccc(C[C@H](N)C(=O)N[C@H]2[C@@H](O)[C@H](n3cnc4c(N(C)C)ncnc43)O[C@@H]2CO)cc1 [PUROMYCIN]
A. 9.9

----------
Consider the following molecules; for each one, report its pIC50.
Tested on: HEK293
Experiment: Cytotoxicity against HEK293 cells after 72 hrs by resazurin dye-based fluorescence assay
Format: cell-based
Conditions: Homo sapiens, HEK293, 72 h
Answer as the number alone; pIC50 is minus log10 of concentration in mol/L.

Q. What value of pIC50 has been reported for the following molecule? `COc1ccc(C[C@H](N)C(=O)N[C@H]2[C@@H](O)[C@H](n3cnc4c(N(C)C)ncnc43)O[C@@H]2CO)cc1`
A. 6.16

Q. Please report the recorded pIC50 for `COc1ccc2nc3cc(Cl)ccc3c(Nc3cc(CN4CCCC4)c(O)c(CN4CCCC4)c3)c2n1` .
A. 5.70
